From: patent US20260182575A1

Test system: Brown Planthopper (Nilaparvata lugens, NILALU, BPH)
Test: Bioassay 6: brown planthopper, sprayed rice seedlings
Assay type: in vivo
Settings: AI alone, AI Rate 0.049 g/ha, 6 days
Experimental: At these rates, F1 and the individual active ingredients were tested at a ratio of 1:1. […] F1 and triflumezopyrim were tested at a ratio of 16:1. […] Five (5) rice seedlings (10-12 days old) planted in 3-inch pots were used as test plants. […] The test chambers were held at 25° C. for 6 days, after which the total number of live insects was counted in each test chamber. Percent control was measured using Abbott's correction formula (W. S. Abbott, J. Econ. Entomol. 18 (1925), pp. 265-267) as follows: […]
Measured Parameter: Average % Control AI (%)
Express it in %; write the number only.

1. C[C@]1(COC(=O)C2CC2)[C@@H]2C[C@H](O)[C@@]3(C)Oc4cc(-c5cccnc5)oc(=O)c4[C@H](O)[C@@H]3[C@@]2(C)CC[C@@H]1OC(=O)C1CC1 ... 11.4
2. CON=CNC(=O)c1ccc(C2=NOC(c3cc(Cl)cc(Cl)c3)(C(F)(F)F)C2)cc1C (stereo not shown) [Fluxametamide] ... 42.3
3. CCN(C(=O)CCS(C)(=O)=O)c1sc(-c2cccnc2)nc1Cl ... 0.0

For reference, reported Average % Control AI for COC(=O)N(C(=O)N1CO[C@@]2(C(=O)OC)Cc3cc(Cl)ccc3C2=N1)c1ccc(OC(F)(F)F)cc1 stands at 1.2
